# METHOD: STM_H9_NormalizedViability: Cytotoxicity Assessment at 120 hours in the Stemina devTOX quickPredict H9 human embryonic stem cell (hESC)-based Assay (AID 2283784)
Results filed as inconclusive are left out. The source made the active and inactive calls. Rule for the calls: active = hit-call score of the fitted dose curve at least 0.9, where 1 is the maximum; inconclusive = response in the unintended direction; inactive = score below 0.9.
Result category, one only: true for active, false for inactive

What call does the record list for N#Cc1nn(-c2c(Cl)cc(C(F)(F)F)cc2Cl)c(N)c1S(=O)C(F)(F)F (stereo unspecified) ?
true

What call does the record list for CCNc1nc(Cl)nc(NCC)n1 ?
false

What call does the record list for C=CCC1=C(C)[C@@H](OC(=O)[C@@H]2[C@@H](C=C(C)C)C2(C)C)CC1=O ?
false

What call does the record list for CO/C=C(/C(=O)OC)c1ccccc1Oc1cc(Oc2ccccc2C#N)ncn1 ?
false

What call does the record list for CCCCNC(=O)n1c(NC(=O)OC)nc2ccccc21 ?
true

What call does the record list for CCCCC(CC)COC(=O)c1ccccc1C(=O)OCC(CC)CCCC (stereo unspecified) ?
false

What call does the record list for CCCC1COC(Cn2cncn2)(c2ccc(Cl)cc2Cl)O1 (stereo unspecified) ?
true

What call does the record list for CN(C)C(=S)SSC(=S)N(C)C ?
true

What call does the record list for CCNc1nc(Cl)nc(NC(C)C)n1 ?
false

What call does the record list for COc1nc(NC(C)C)nc(NC(C)C)n1 ?
false

What call does the record list for C=CC1(C)OC(=O)N(c2cc(Cl)cc(Cl)c2)C1=O (stereo unspecified) ?
false

* * *

# METHOD: BSK_3C_TissueFactor: BioMAP Diversity Plus: 3C Assay for Tissue Factor Biomarker Activity (AID 2282997)
# RUN PARAMETERS: BioMAP 3C HUVEC, tissue factor biomarker readout; actives raise or lower the signal
Activity calls are given as the source filed them. The calls were made as follows: active = hit-call score of the fitted dose curve at least 0.9, where 1 is the maximum; inactive = score below 0.9.
Result category, one only: active, inactive

Past entries and their recorded results:
* CCOc1cc(Oc2ccc(C(F)(F)F)cc2Cl)ccc1[N+](=O)[O-] | inactive
* CNC(=S)S | inactive
* Cc1cc(Cl)ccc1OCC(=O)O | inactive
* C#CCOS(=O)OC1CCCCC1Oc1ccc(C(C)(C)C)cc1 (stereo not given) | inactive
* CCCN(CCC)c1c([N+](=O)[O-])cc(S(N)(=O)=O)cc1[N+](=O)[O-] | active

What call does the record list for Cc1ccc(-c2c(Cl)nc(C#N)n2S(=O)(=O)N(C)C)cc1 ?
active

What call does the record list for O=C(Nc1ccccc1)Nc1ccnc(Cl)c1 ?
inactive

What call does the record list for COc1nc(C)nc(NC(=O)NS(=O)(=O)c2ccccc2CCC(F)(F)F)n1 ?
inactive

What call does the record list for CC(Oc1ccc(Cl)cc1Cl)C(=O)O (stereo not given) ?
inactive

What call does the record list for C=CC1(C)OC(=O)N(c2cc(Cl)cc(Cl)c2)C1=O (stereo not given) ?
inactive

* * *

# Read-out: Broad substrate specificity ATP-binding cassette transporter ABCG2 (Homo sapiens)
# METHOD: LTEA_HepaRG_ABCG2: Life Technologies and Expression Analysis (LTEA) Assay for ABC Transporter (ABCG2) using HepaRG (AID 2283465)
# RUN PARAMETERS: mRNA level, 48 h; actives raise or lower the signal
Active and inactive are the calls of the source. Rule for the calls: active = hit-call score of the fitted dose curve at least 0.9, where 1 is the maximum; inactive = score below 0.9.
Result category, one only: y for active, n for inactive

• CN(C)C(=S)SSC(=S)N(C)C = n
• COC(=O)c1ccccc1C(=O)OC = n
• CON(C)C(=O)Nc1ccc(Cl)c(Cl)c1 = y
• CCCCOC(=O)c1ccccc1C(=O)OCCCC = n
• CCOc1cc(Oc2ccc(C(F)(F)F)cc2Cl)ccc1[N+](=O)[O-] = y
• COc1nc(NC(C)C)nc(NC(C)C)n1 = n
• Cc1cc(Cl)ccc1OCC(=O)O = n
• COc1cnc(OC)n2nc(NS(=O)(=O)c3c(OCC(F)F)cccc3C(F)(F)F)nc12 = n

What call does the record list for C#CCOS(=O)OC1CCCCC1Oc1ccc(C(C)(C)C)cc1 (stereo not drawn) ?
y

What call does the record list for CS/C(C)=N/OC(=O)N(C)SN(C)C(=O)O/N=C(\C)SC ?
n

What call does the record list for CCCC1COC(Cn2cncn2)(c2ccc(Cl)cc2Cl)O1 (stereo not drawn) ?
y

What call does the record list for CNC(=O)ON=CC(C)(C)SC ?
n

What call does the record list for CC(C)C1(C)N=C(c2nc3ccccc3cc2C(=O)O)NC1=O (stereo not drawn) ?
n

What call does the record list for COC(=O)C(C)Oc1ccc(Oc2ccc(Cl)cc2Cl)cc1 (stereo not drawn) ?
n

What call does the record list for Cc1c(F)c(F)c(COC(=O)C2C(/C=C(\Cl)C(F)(F)F)C2(C)C)c(F)c1F (stereo not drawn) ?
n

What call does the record list for CCNc1nc(Cl)nc(NC(C)C)n1 ?
n
